# Tgt: CYP3A4 (Homo sapiens, UniProt P08684)
# Sequence (P08684 2-503): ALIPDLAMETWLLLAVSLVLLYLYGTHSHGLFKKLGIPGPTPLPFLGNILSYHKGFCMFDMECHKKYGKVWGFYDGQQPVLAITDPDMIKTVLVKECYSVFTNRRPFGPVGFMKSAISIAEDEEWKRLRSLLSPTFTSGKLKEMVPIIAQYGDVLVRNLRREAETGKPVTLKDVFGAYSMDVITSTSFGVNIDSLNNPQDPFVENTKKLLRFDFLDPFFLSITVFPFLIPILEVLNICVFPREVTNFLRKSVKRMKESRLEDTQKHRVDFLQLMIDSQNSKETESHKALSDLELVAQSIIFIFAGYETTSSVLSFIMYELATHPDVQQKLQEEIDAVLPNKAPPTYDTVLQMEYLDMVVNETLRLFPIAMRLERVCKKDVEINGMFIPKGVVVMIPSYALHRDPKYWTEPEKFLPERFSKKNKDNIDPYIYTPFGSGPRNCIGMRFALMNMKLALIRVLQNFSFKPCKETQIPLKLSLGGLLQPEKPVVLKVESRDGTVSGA
# Protocol notes: IC50 vs CYP3A by inhibition of lopinavir metabolism in human liver microsomes
# Type: biochemical
# Design: 0.01 mg/mL protein human liver microsomes (BD Gentest); tissue BD Gentest; host or cells: human liver microsomes
# Condition: 1.5 μM lopinavir, 0.01 mg/mL human liver microsomes, 8 min at 37° C.; read-out: CYP IC50 (nM) 3A4 (LPV)
Give measured IC50 for each item. Keep answers brief.

// query State its IC50 on CYP3A4 (Homo sapiens, UniProt P08684): COCCn1cncc1-c1ccccc1C1CCCN1S(=O)(=O)c1cnc(NC(C)=O)s1 (stereo not drawn)
// result ≥ 100 nM

// query State its IC50 on CYP3A4 (Homo sapiens, UniProt P08684): C[C@@H](NS(=O)(=O)c1cnc(N2CCN3C[C@H](O)C[C@H]3C2)s1)c1ccccc1-c1cncn1CCc1ccc(F)cc1
// result 8.6 nM

// query State its IC50 on CYP3A4 (Homo sapiens, UniProt P08684): CC(=O)Nc1ncc(S(=O)(=O)NCc2ccc(-c3cncn3CCc3ccc(F)cc3)cn2)s1
// result > 100 nM

====

# Tgt: CYP2C9 (Homo sapiens, UniProt P11712)
# Construct: 0.1 mg/mL protein human liver microsomes (BD Gentest); tissue BD Gentest; host or cells: human liver microsomes
# Sequence (P11712 whole entry): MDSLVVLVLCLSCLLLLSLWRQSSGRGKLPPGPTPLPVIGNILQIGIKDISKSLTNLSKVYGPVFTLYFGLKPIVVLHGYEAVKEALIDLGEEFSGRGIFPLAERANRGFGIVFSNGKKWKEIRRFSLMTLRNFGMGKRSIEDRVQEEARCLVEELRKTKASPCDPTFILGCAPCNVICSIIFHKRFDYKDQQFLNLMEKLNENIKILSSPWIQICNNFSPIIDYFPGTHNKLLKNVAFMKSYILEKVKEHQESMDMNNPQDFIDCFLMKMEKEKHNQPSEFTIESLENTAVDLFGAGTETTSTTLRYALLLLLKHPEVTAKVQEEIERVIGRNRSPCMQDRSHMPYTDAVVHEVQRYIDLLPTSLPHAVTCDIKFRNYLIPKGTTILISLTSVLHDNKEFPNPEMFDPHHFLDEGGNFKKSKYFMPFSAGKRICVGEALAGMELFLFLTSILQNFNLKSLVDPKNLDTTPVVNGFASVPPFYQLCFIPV
# Protocol notes: Cocktail assay for CYPs, diclofenac 4′-hydroxylation (CYP2C9), human liver microsomes
# Type: biochemical
# Condition: 5 μM diclofenac, 0.1 mg/mL human liver microsomes, 10 min at 37° C.; read-out: CYP IC50 (nM) 2C9
Value type: IC50

// query Could you tell me which IC50 is on file for O=S(=O)(c1ccc(N2CCC(O)CC2)nc1)N1CCCC1c1cccc(-c2cncn2CCc2ccc(F)cc2)c1 (single isomer, unassigned) [Compound 57a] ?
// result 365 nM

// query Could you tell me which IC50 is on file for COc1ccc(OC)c(S(=O)(=O)N2CCCC2c2cccc(-c3cncn3CCc3ccc(F)cc3)c2)c1 (single isomer, unassigned) [Compound 53a] ?
// result 165 nM

// query Could you tell me which IC50 is on file for CN1CCN(c2ncc(S(=O)(=O)N3CCCC3c3ccc(-c4cncn4CCc4ccc(F)cc4)cc3)s2)CC1 (stereo not shown) ?
// result 684 nM

// query Could you tell me which IC50 is on file for CC(C)NC(=O)N1CCCC1c1ccccc1-c1cncn1CCc1ccc(F)cc1 (single isomer, unassigned) [Compound 46a] ?
// result > 10000 nM

// query Could you tell me which IC50 is on file for O=C(C1CC1)N1CCCC1c1ccccc1-c1cncn1CCc1ccc(F)cc1 (single isomer, unassigned) [Compound 44b] ?
// result 5900 nM

// query Could you tell me which IC50 is on file for O=C(c1cccnc1)N1CCCC1c1cccc(-c2cncn2CCc2ccc(F)cc2)c1 (single isomer, unassigned) [Compound 48a] ?
// result > 10000 nM

// query Could you tell me which IC50 is on file for CN1CCN(c2ncc(S(=O)(=O)N3CCc4c(ncnc4-c4cncn4CCc4ccc(F)cc4)C3)s2)CC1 ?
// result > 10000 nM

====

# Tgt: CYP2D6 (Homo sapiens, UniProt P10635)
# Construct: 0.1 mg/mL protein human liver microsomes (BD Gentest); tissue BD Gentest; host or cells: human liver microsomes
# Sequence (P10635 whole entry): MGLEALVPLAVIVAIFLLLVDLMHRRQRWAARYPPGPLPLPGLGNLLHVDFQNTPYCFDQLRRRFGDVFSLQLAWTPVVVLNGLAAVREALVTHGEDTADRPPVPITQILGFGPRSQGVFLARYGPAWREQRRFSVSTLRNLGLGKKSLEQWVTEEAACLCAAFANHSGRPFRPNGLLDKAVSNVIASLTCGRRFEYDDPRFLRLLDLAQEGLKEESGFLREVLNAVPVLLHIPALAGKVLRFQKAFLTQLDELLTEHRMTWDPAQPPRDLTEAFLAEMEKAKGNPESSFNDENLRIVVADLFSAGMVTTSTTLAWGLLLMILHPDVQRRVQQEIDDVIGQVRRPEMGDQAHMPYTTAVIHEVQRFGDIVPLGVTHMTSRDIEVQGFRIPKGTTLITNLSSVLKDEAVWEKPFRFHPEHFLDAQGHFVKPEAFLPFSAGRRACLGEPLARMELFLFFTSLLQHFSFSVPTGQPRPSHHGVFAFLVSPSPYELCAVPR
# Protocol notes: Cocktail assay for CYPs, dextromethorphan O-demethylation (CYP2D6), human liver microsomes
# Format: biochemical
# Condition: 5 μM dextromethorphan, 0.1 mg/mL human liver microsomes, 10 min at 37° C.; read-out: CYP IC50 (nM) 2D6
Give measured IC50 for each item. Keep answers brief.

// query Could you tell me which IC50 is on file for CN1CCN(c2ncc(S(=O)(=O)N3CCc4c(-c5cncn5CCc5ccc(F)cc5)ccnc4C3)s2)CC1 [Compound 66] ?
// result > 10000 nM

// query Could you tell me which IC50 is on file for O=C(C1CCOCC1)N1CCCC1c1cccc(-c2cncn2CCc2ccc(F)cc2)c1 (single isomer, unassigned) [Compound 49a] ?
// result 4700 nM

// query Could you tell me which IC50 is on file for CC(=O)Nc1ncc(S(=O)(=O)N2CCCC2c2ccccc2-c2cncn2C)s1 (stereo not drawn) [Compound 30] ?
// result > 10000 nM
